Numbers sourced from patent US20260242478A1.

Listed next: entries and their corresponding EC50.
- ASSAY_SYSTEM: Ab-15
- Sequence (heavy, as listed by the source, chain 1 of 2): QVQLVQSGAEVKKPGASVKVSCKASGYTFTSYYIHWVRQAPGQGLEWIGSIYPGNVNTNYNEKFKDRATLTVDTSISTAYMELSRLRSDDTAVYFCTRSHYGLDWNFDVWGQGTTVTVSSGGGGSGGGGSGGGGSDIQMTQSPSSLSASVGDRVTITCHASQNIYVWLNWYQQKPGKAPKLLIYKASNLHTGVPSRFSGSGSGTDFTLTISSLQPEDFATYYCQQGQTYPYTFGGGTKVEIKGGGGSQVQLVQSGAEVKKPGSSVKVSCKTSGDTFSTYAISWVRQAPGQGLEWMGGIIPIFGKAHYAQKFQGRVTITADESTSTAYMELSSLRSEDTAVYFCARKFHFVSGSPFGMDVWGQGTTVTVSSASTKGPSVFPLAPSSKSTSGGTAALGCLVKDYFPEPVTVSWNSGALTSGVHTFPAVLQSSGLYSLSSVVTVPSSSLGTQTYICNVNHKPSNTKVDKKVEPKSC
- Sequence (light, as listed by the source, chain 2 of 2): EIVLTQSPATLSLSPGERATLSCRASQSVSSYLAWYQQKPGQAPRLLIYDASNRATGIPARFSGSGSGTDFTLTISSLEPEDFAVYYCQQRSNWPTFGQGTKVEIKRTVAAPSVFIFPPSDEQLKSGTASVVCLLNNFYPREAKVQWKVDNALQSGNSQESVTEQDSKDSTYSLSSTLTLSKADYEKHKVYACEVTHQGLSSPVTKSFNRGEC
- PROTOCOL_SUMMARY: binding ELISA: biotinylated peptide on neutravidin plate, Ab-15 titrated
Where no end group is shown, it is not given here.
Kindly provide the numeric value in nM only, without the unit symbol.

Answered cases to consult:
BINDER	EC50 / nM
TDWCPRDLWVHCFA (cysteine pairing not given here; also: biotinylated, site not given here, CD28 peptide mask) [Peptide-66]	24
VDWCPRDLWVHCFA (cysteine pairing not given here; also: biotinylated, site not given here, CD28 peptide mask) [Peptide-69]	32.5
KDWCPRDLWVHCFA (cysteine pairing not given here; also: biotinylated, site not given here, CD28 peptide mask) [Peptide-62]	19.7
IDWCPRDLWVHCFA (cysteine pairing not given here; also: biotinylated, site not given here, CD28 peptide mask) [Peptide-60]	44.9
HDWCPRDLWVHCFA (cysteine pairing not given here; also: biotinylated, site not given here, CD28 peptide mask) [Peptide-59]	45.4

Query :: Looking for the measured EC50 of QDWCPRDLWVHCFA (cysteine pairing not given here; also: biotinylated, site not given here, CD28 peptide mask) [Peptide-56] , can you help?
Result :: 25.7

Query :: Looking for the measured EC50 of EDWCPRDLWVHCFA (cysteine pairing not given here; also: biotinylated, site not given here, CD28 peptide mask) [Peptide-57] , can you help?
Result :: 32.8

Query :: Looking for the measured EC50 of ADWCPRDLWVHCFA (cysteine pairing not given here; also: biotinylated, site not given here, CD28 peptide mask) [Peptide-52] , can you help?
Result :: 75.9

Query :: Looking for the measured EC50 of PDWCPRDLWVHCFA (cysteine pairing not given here; also: biotinylated, site not given here, CD28 peptide mask) [Peptide-64] , can you help?
Result :: 102

Query :: Looking for the measured EC50 of FDWCPRDLWVHCFA (cysteine pairing not given here; also: biotinylated, site not given here, CD28 peptide mask) [Peptide-63] , can you help?
Result :: 39.3

Query :: Looking for the measured EC50 of SDWCPRDLWVHCFA (cysteine pairing not given here; also: biotinylated, site not given here, CD28 peptide mask) [Peptide-65] , can you help?
Result :: 66.5

Query :: Looking for the measured EC50 of NDWCPRDLWVHCFA (cysteine pairing not given here; also: biotinylated, site not given here, CD28 peptide mask) [Peptide-54] , can you help?
Result :: 84.3

Query :: Looking for the measured EC50 of YDWCPRDLWVHCFA (cysteine pairing not given here; also: biotinylated, site not given here, CD28 peptide mask) [Peptide-68] , can you help?
Result :: 32.2

Query :: Looking for the measured EC50 of GDWCPRDLWVHCFA (cysteine pairing not given here; also: biotinylated, site not given here, CD28 peptide mask) [Peptide-58] , can you help?
Result :: 73.9

Query :: Looking for the measured EC50 of DDWCPRDLWVHCFA (cysteine pairing not given here; also: biotinylated, site not given here, CD28 peptide mask) [Peptide-55] , can you help?
Result :: 86.8
